system: phospho-p90 RSK (RSK1 Thr359/Ser363) in A375 (Braf V600E) cells; assay: Phospho-p90 RSK ELISA using A375 (Braf V600E) cells; type: cell-based; conditions: Homo sapiens, A-375, 2 hours compound treatment, read-out: Cellular Phospho-p90RSK IC50
Recorded measurements of IC50, one per entry

Examples with their reported IC50 follow.
# IC50 lookup, item CC(c1ccccc1)c1cc2cc3c(-c4ccnc(N5CCOCC5)c4)n[nH]c3cc2[nH]c1=O (centres unmarked) [Example 325]
≤ 0.25 µM

# IC50 lookup, item C[C@H](c1cccc(Cl)c1)N1Cc2cc3c(-c4ccnnc4)n[nH]c3cc2NC1=O [Example 111]
0.25 to 1 µM

// returns reported IC50 for input Cn1nccc1-c1n[nH]c2cc3c(cc12)CN([C@@H]1CCCN(Cc2ccccc2)C1)C(=O)N3 [Example 261]
≤ 0.25 µM

Query (compound): Cc1cc(-c2n[nH]c3cc4c(cc23)CN([C@@H]2CCCN(CC3CCCCC3)C2)C(=O)N4)ccn1 [Example 141] ; field requested: IC50
≤ 0.25 µM

Please look up its IC50: Cc1cc(-c2n[nH]c3cc4c(cc23)CN(Cc2ccc(Cl)cc2)C(=O)N4)ccn1 [Example 14]
≤ 0.25 µM

Param item = COc1ncccc1CN1Cc2cc3c(-c4ccnc(C)c4)n[nH]c3cc2NC1=O [Example 9] ; retrieve measured IC50.
0.25 to 1 µM

Now consider the entry below.
Entry Cc1cc(-c2n[nH]c3cc4c(cc23)CN([C@@H]2CN(CC(F)(F)F)C[C@H]2C(F)(F)F)C(=O)N4)ccn1 [Example 331] has what IC50?
0.25 to 1 µM

###

Reported pIC50 values are given for each entry in this list.
test system: phospho-p90 RSK (RSK1 Thr359/Ser363) in A375 (Braf V600E) cells; assay: Phospho-p90 RSK ELISA using A375 (Braf V600E) cells; type: cell-based; conditions: Homo sapiens, A-375, 2 hours compound treatment, read-out: Cellular Phospho-p90RSK IC50
pIC50: −log10 of the molar value.

Worked examples follow.
What value of pIC50 on phospho-p90 RSK (RSK1 Thr359/Ser363) in A375 (Braf V600E) cells does Cc1cc(-c2n[nH]c3cc4c(cc23)CN(Cc2nc(C)cs2)C(=O)N4)ccn1 have?
≥ 6.60

// map COc1ccc(-c2n[nH]c3cc4c(cc23)CN([C@@H]2CCCN(Cc3ccc(F)cc3F)C2)C(=O)N4)cn1 to recorded pIC50 (system: phospho-p90 RSK (RSK1 Thr359/Ser363) in A375 (Braf V600E) cells)
≥ 6.60

API: value(readout= pIC50, system= phospho-p90 RSK (RSK1 Thr359/Ser363) in A375 (Braf V600E) cells, query= Cc1cc(-c2n[nH]c3cc4c(cc23)CN(CCC2CC2)C(=O)N4)ccn1 )
< 6.00

For phospho-p90 RSK (RSK1 Thr359/Ser363) in A375 (Braf V600E) cells, provide pIC50 of Cc1cc(-c2n[nH]c3cc4c(cc23)CN([C@@H]2CCCN(Cc3cc(C(C)(C)C)no3)C2)C(=O)N4)ccn1 please.
6.00 to 6.60

Record lookup: for phospho-p90 RSK (RSK1 Thr359/Ser363) in A375 (Braf V600E) cells, what pIC50 belongs to Cc1cc(-c2n[nH]c3cc4c(cc23)CN(C2CCC2)C(=O)N4)ccn1 ?
≥ 6.60

Hi! What's the reported pIC50 for Cc1cc(-c2n[nH]c3cc4c(cc23)CN([C@@H]2CN(C)C[C@H]2c2ccc(F)cc2)C(=O)N4)cc(C)n1 (racemic) on phospho-p90 RSK (RSK1 Thr359/Ser363) in A375 (Braf V600E) cells?
≥ 6.60

Checklist item: pIC50 tested on phospho-p90 RSK (RSK1 Thr359/Ser363) in A375 (Braf V600E) cells, entry Cc1cc(-c2n[nH]c3cc4c(cc23)CN([C@@H]2CCCN(c3ccc(F)cn3)C2)C(=O)N4)ccn1 , value?
≥ 6.60

Lookup: pIC50 / phospho-p90 RSK (RSK1 Thr359/Ser363) in A375 (Braf V600E) cells / COc1ncc(-c2n[nH]c3cc4c(cc23)CN(Cc2cccc(C#N)c2)C(=O)N4)cn1
6.00 to 6.60

Query molecule follows.
Identify the measured pIC50 of N#Cc1cccc(CN2Cc3cc4c(-c5ccnnc5)n[nH]c4cc3NC2=O)c1 for phospho-p90 RSK (RSK1 Thr359/Ser363) in A375 (Braf V600E) cells.
< 6.00
